- System: Candida tropicalis
- measurement.notes: Antifungal activity against Candida tropicalis KCCM 50662 after 1 day
- Assay type: functional
- settings: KCCM 50662, 24 h

[
  {
    "input.smiles": "Cc1cc2oc(N)c(C#N)c2cc1O",
    "system.name": "Candida tropicalis",
    "relation.qualifier": ">",
    "MIC, µg/mL": 50
  },
  {
    "input.smiles": "COC(=O)c1c(N)oc2cc(Cl)c(O)cc12",
    "system.name": "Candida tropicalis",
    "relation.qualifier": "=",
    "MIC, µg/mL": 12.5
  },
  {
    "input.smiles": "COC(=O)c1c(N)oc2ccc(O)cc12",
    "system.name": "Candida tropicalis",
    "relation.qualifier": "=",
    "MIC, µg/mL": 3.2
  },
  {
    "input.smiles": "COC(=O)c1c(N)oc2c(C)c(C)c(O)c(Sc3ccccc3)c12",
    "system.name": "Candida tropicalis",
    "relation.qualifier": "=",
    "MIC, µg/mL": 25
  },
  {
    "input.smiles": "COC(=O)c1c(N)oc2cc(C)c(O)cc12",
    "system.name": "Candida tropicalis",
    "relation.qualifier": "=",
    "MIC, µg/mL": 25
  },
  {
    "input.smiles": "Cc1c(O)ccc(O)c1C",
    "system.name": "Candida tropicalis",
    "relation.qualifier": ">",
    "MIC, µg/mL": 50
  }
]
